Cited source: patent US11180474B2

# experimental system: human TLR8 (Homo sapiens, UniProt Q9NR97)
# assay name: TLR8 inhibition reporter assay (HEK-Blue cells, SEAP reporter, R848 stimulation)
# experimental conditions: HEK-Blue cells overexpressing human TLR8, R848 15.9 μM
Where a name gives a salt, the structure may show the parent alone.
experimental readout: log10 of IC50 (log10 of the value in µM)

COc1ccc(-c2[nH]c3ccc(C4CCNCC4O)cc3c2C(C)C)cc1OC (single isomer, unassigned) [Example 317, 2,2,2-trifluoroacetate] | -1.09
CCc1c(-c2ccc(OC)c(OC)c2)[nH]c2ccc(C3CCN(C4CCN(Cc5cc6ccccc6n5C)CC4)CC3)cc12 | 0.11
COc1ccc(-c2[nH]c3ccc(C4CCN(C(=O)CN[C@H]5CC[C@H](N)CC5)CC4)cc3c2C(C)C)cc1OC | -0.77
COc1ccc(-c2[nH]c3ccc(C4CCN(C(=O)CN5CCC[C@H](C(=O)N6CCN(CCN7CCCC7)CC6)C5)CC4)cc3c2C(C)C)cc1OC | -1.48
CCc1c(-c2ccc(OC)c(OC)c2)[nH]c2cc(C)c(C3CCNCC3)cc12 [Example 396, HCl] | -0.53
COc1ccc(-c2[nH]c3ccc(C4CCN(C(=O)CN5CCC[C@H](C(=O)N6CCC(CCO)CC6)C5)CC4)cc3c2C(C)C)cc1OC | -1.77
CCc1c(-c2ccc(OC)c(OC)c2)[nH]c2ccc(C3CCN(C4CCN(Cc5c[nH]cn5)CC4)CC3)cc12 | -0.82
CCc1c(-c2ccc(OC)c(OC)c2)[nH]c2ccc(C3CCN(C(C)=O)CC3)cc12 | -0.08
CCc1c(-c2ccc(OC)c(OC)c2)[nH]c2ccc(C3CCN(C4CCN(Cc5cc6ccccc6[nH]5)CC4)CC3)cc12 | -0.20
CCc1c(-c2ccc(OC)c(OC)c2)[nH]c2c(F)cc(C3CCN(C4CCN(CC(C)C)CC4)CC3)cc12 | 0.25

---

# experimental system: human TLR8 (Homo sapiens)
# Construct: host or cells: HEK-Blue cells
# Sequence (Q9NR97 27-1041): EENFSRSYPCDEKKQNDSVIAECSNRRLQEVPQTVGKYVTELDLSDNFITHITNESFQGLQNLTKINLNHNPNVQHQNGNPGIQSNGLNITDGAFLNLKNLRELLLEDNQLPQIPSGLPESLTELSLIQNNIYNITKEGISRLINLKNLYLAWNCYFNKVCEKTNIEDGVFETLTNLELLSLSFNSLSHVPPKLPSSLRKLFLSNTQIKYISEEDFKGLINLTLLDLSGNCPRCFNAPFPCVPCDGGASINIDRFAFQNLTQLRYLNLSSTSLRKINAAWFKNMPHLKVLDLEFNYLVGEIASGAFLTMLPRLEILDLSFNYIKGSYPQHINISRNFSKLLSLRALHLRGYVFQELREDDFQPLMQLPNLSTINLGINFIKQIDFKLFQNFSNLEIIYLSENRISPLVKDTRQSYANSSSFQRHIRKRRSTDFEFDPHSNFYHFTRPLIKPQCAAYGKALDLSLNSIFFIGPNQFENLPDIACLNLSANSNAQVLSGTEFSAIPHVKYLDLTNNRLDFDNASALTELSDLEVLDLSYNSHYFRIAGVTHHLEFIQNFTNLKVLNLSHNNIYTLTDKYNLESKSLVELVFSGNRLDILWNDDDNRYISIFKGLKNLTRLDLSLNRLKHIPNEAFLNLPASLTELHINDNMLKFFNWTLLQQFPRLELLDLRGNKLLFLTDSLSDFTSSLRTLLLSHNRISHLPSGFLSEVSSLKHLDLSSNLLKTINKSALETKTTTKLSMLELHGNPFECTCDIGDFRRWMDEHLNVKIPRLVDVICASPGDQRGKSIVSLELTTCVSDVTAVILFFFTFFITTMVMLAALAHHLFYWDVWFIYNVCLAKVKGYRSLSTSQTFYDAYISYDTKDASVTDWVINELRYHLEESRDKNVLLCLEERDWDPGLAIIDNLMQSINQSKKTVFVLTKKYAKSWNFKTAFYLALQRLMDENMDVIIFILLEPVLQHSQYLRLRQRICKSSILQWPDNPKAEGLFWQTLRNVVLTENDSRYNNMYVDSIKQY
# assay name: TLR8 inhibition reporter assay (HEK-Blue cells, SEAP reporter, R848 stimulation)
# Format: cell-based
# experimental conditions: HEK-Blue cells overexpressing human TLR8, R848 15.9 μM
pIC50: −log10 of the molar value. Structures can show the parent of a compound that is named as a salt.
pIC50 vs 7: at or above is y, below is n.

COc1ccc(-c2[nH]c3ccc(C4CCN(C(=O)CCCn5ccnc5)CC4)cc3c2CC(F)(F)F)cc1OC [Example 331] | n
CCc1c(-c2ccc(OC)c(OC)c2)[nH]c2ccc(C3CCN(C4CCN(Cc5ccoc5)CC4)CC3)cc12 [Example 146] | n
COc1ccc(-c2[nH]c3ccc(C4CCNCC4)cc3c2C(C)C)cc1OC [Example 194, hydrochloride] | y
COc1ccc(-c2[nH]c3ccc(C4CCN(C(=O)CN5CCC[C@H](C(=O)N6CCN(c7cccc(C(F)(F)F)c7)CC6)C5)CC4)cc3c2C(C)C)cc1OC [Example 290] | n
COc1ccc(-c2[nH]c3ccc(C4CCN(C5CCN(C)CC5)CC4)cc3c2C(C)C)cc1OC [Example 200] | y
COc1ccc(-c2[nH]c3ccc(C4CCN(C)CC4)cc3c2CC(F)(F)F)cc1OC [Example 355] | y

---

# experimental system: human TLR8 (Homo sapiens)
# Sequence (Q9NR97 27-1041): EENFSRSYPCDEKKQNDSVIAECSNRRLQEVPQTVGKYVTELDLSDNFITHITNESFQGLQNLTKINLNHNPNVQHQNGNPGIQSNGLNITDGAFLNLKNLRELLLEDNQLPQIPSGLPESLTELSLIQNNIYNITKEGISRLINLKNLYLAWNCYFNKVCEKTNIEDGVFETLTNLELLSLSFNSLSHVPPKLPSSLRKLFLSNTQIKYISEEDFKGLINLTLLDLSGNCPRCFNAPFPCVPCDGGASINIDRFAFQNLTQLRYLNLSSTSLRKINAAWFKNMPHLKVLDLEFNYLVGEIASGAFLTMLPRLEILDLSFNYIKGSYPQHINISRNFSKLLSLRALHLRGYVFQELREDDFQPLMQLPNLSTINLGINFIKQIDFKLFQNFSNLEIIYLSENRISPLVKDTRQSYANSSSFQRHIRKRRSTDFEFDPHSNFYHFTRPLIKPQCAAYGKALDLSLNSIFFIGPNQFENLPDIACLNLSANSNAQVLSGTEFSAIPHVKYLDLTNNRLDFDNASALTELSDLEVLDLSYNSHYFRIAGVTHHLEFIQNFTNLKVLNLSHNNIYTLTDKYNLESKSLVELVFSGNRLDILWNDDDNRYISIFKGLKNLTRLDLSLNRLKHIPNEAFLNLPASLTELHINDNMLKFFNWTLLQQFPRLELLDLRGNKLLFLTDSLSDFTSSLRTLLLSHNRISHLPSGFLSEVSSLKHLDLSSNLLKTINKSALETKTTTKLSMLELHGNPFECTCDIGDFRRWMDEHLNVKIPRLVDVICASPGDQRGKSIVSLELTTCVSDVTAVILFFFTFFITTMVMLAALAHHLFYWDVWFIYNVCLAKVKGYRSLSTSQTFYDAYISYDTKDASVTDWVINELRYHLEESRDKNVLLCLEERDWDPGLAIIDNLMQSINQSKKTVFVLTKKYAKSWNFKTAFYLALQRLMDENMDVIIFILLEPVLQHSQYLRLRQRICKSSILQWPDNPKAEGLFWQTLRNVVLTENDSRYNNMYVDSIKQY
# assay name: TLR8 inhibition reporter assay (HEK-Blue cells, SEAP reporter, R848 stimulation)
# experimental conditions: HEK-Blue cells overexpressing human TLR8, R848 15.9 μM
IC50 reference
experimental readout: IC50 (nM)

COc1ccc(-c2[nH]c3ccc(C4CCN(C(=O)CN5CCC[C@H](C(=O)N(C)C(C)C)C5)CC4)cc3c2C(C)C)cc1OC | 32
CNCC(=O)N1CCC(c2ccc3[nH]c(-c4ccc(OC)c(OC)c4)c(CC(F)(F)F)c3c2)CC1 | 86
COc1ccc(-c2[nH]c3ccc(C4CCN(C(=O)CN5CCC[C@@H](C(=O)N6CCC(N(C)C)CC6)C5)CC4)cc3c2C(C)C)cc1OC | 26

---

IC50 values by entry
# experimental system: human TLR7 (Homo sapiens, UniProt Q9NYK1)
# Sequence (Q9NYK1 27-1049): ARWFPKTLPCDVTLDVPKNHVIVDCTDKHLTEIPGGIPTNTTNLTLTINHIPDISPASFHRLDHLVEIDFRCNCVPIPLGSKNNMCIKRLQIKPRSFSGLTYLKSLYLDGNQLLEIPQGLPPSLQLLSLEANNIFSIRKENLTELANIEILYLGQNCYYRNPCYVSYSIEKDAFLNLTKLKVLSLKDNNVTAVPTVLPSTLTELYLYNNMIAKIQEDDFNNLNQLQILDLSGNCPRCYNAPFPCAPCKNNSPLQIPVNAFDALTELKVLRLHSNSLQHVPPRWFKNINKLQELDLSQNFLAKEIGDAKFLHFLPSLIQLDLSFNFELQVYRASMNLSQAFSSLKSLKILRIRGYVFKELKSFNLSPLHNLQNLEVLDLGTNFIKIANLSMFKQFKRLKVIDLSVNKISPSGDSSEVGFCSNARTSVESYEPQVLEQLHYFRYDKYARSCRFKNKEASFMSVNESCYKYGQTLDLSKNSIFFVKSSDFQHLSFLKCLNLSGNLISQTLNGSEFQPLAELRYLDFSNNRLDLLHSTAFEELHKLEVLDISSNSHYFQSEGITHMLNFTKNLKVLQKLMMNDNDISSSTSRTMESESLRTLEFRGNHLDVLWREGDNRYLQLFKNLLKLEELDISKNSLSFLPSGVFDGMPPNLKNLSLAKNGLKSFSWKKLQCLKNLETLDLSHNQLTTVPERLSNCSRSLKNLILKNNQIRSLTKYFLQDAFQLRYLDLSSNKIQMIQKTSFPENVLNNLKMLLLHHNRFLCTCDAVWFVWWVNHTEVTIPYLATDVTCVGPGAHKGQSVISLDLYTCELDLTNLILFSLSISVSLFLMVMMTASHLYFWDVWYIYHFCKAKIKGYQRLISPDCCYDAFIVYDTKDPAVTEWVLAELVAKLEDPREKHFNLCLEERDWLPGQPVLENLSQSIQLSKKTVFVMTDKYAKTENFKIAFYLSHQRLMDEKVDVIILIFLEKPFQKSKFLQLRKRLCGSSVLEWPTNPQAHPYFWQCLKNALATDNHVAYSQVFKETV
# assay name: TLR7 inhibition reporter assay (HEK-Blue cells, SEAP reporter, gardiquimod stimulation)
# experimental conditions: HEK-Blue cells overexpressing human TLR7, gardiquimod 7.5 μM
experimental readout: IC50 (µM)

COc1ccc(-c2[nH]c3ccc(C4CCNCC4F)cc3c2C(C)C)cc1OC (racemic) [Example 320] | 0.071
COc1ccc(-c2[nH]c3ccc(C4CCN(C(=O)CN[C@H](C)C(C)C)CC4)cc3c2C2CCOCC2)cc1OC [Example 394] | 1.39
CCc1c(-c2ccc(OC)c(OC)c2)[nH]c2cc(C)c(C3CCN(CCNC)CC3)cc12 [Example 188] | 0.07
CCc1c(-c2ccc(OC)c(OC)c2)[nH]c2ccc(C3CCN(C(=O)CNc4nccs4)CC3)cc12 [Example 177] | 0.121
COc1ccc(-c2[nH]c3ccc(C4CCN(CC(=O)Nc5cc(C(C)(C)C)[nH]n5)CC4)cc3c2CC(F)(F)F)cc1OC [Example 387] | 0.994
COc1ccc(-c2[nH]c3ccc(C4CCN(C[C@@H]5CCCN5)CC4)cc3c2C)cc1OC [Example 107] | 1.31
COc1ccc(-c2[nH]c3ccc(C4CCN(CC(=O)NCC(N)=O)CC4)cc3c2CC(F)(F)F)cc1OC [Example 385] | 0.061
CCc1c(-c2ccc(OC)c(OC)c2)[nH]c2ccc(C3CCN(C4CCN(Cc5c(C)[nH]c6ccccc56)CC4)CC3)cc12 [Example 129] | 1.14
